molecular target: EGFR L858R/T790M (Homo sapiens, UniProt P00533, L858R/T790M); construct: purchased Carna Bio; assay: Inhibition of EGFR L858R/T790M biochemical enzymatic activity (HTRF); conditions: EGFR L858R-T790M, 1 mM ATP, 1 h, room temperature, read-out: IC50 (nM) @L858R-T790M
Sequence (P00533 25-1210 T790M/L858R): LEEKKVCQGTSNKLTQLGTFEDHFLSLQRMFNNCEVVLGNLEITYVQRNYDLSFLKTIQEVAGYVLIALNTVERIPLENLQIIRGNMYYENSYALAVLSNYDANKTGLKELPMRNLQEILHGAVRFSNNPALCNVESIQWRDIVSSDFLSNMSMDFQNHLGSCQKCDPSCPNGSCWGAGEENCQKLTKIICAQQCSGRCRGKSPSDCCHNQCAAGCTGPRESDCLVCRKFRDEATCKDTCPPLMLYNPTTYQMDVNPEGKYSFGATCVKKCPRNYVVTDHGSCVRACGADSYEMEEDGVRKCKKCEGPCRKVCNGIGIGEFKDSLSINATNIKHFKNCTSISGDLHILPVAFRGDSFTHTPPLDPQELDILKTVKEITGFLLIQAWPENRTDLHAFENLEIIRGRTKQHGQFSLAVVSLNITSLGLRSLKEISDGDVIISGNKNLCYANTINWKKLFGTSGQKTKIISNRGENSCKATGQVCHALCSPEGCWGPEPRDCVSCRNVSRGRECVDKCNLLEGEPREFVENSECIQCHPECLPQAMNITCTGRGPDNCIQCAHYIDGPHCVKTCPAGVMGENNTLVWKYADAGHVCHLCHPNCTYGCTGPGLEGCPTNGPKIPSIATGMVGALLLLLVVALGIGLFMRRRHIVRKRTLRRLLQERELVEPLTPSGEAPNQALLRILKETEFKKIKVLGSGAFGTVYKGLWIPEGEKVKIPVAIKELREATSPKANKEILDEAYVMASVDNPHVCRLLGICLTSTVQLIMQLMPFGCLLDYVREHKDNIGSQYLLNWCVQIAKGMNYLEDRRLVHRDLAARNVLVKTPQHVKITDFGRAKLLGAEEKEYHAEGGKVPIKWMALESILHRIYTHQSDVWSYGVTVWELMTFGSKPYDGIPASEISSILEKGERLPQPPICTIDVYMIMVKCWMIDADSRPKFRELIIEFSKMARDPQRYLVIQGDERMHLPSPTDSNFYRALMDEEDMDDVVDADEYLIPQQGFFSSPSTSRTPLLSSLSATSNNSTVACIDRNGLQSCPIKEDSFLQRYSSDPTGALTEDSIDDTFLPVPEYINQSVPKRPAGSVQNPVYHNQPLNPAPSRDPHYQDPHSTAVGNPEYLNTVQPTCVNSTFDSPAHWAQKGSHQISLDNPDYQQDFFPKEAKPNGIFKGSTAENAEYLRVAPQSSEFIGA
READOUT_KIND: IC50 (nM)

| COMPOUND | IC50 / nM |
| --- | --- |
| C[C@@H]1CCCOc2c(cnn2C)-c2cc(cn(C)c2=O)C(=O)Nc2nc3ccc(N4CCN(C)CC4)cc3n2C1 [Example A25] | 2 |
| CN1CCN(c2ccc3c(c2)nc2n3C34CCC(CN(CCOc5c(cnn5C)-c5cc(cn(C)c5=O)C(=O)N2)C3)C4)CC1 (centres unmarked) [Example A60B] | 49 |
| COCCN(C)c1ccc2nc3n(c2c1)C12CCC(CN(CCOc4c(cnn4C)-c4cc(cn(C)c4=O)C(=O)N3)C1)C2 (single isomer, unassigned) [Example A90B] | 10 |
| CCN1CCN(c2ccc3nc4n(c3c2)C[C@H](C)CCCOc2c(cnn2C)-c2cc(cn(C)c2=O)C(=O)N4)CC1 [Example A49] | 8.1 |
| C[C@@H]1CCCOc2c(cnn2C)-c2cc(cn(C)c2=O)C(=O)Nc2nc3ccc(N4CCN(C5COC5)CC4)cc3n2C1 [Example A39] | 14 |
| Cn1ncc2c1OCCN1CC3CCC(C3)(C1)n1c(nc3ccccc31)NC(=O)c1cc-2c(=O)n(C)c1 (centres unmarked) [Example A61B] | 8 |

I = CN1CC2(CCN(c3ccc4nc5n(c4c3)C34CCC(CN(CCOc6c(cnn6C)-c6cc(cn(C)c6=O)C(=O)N5)C3)C4)C2)C1 (single isomer, unassigned) [Example A73B]
II = CC1CCCCOc2c(cnn2C)-c2cc(cn(C)c2=O)C(=O)Nc2nc3ccc(N4CCN(C)CC4)cc3n21 (centres unmarked) [Example A19]
III = C[C@@H]1CCCOc2c(cnn2C)-c2cc(cn(C)c2=O)C(=O)Nc2nc3ccc(N4CCC(N(C)C)C4)cc3n2C1 (some centres unmarked) [Example A27]
Query: Output the entries ranked by IC50 from maximum down to minimum. List the labels according to the requested ordering.
Response: II, III, I
